Numbers sourced from patent US20210102195A1.

Molecular target: T1, CRTH2R (UniProt Q9Y5Y4 1-395, limits assumed)
T1 construct: whole, on cells; also called Prostaglandin D2 receptor 2 (DP2 or CRTH2) receptor
T1 sequence (looked up): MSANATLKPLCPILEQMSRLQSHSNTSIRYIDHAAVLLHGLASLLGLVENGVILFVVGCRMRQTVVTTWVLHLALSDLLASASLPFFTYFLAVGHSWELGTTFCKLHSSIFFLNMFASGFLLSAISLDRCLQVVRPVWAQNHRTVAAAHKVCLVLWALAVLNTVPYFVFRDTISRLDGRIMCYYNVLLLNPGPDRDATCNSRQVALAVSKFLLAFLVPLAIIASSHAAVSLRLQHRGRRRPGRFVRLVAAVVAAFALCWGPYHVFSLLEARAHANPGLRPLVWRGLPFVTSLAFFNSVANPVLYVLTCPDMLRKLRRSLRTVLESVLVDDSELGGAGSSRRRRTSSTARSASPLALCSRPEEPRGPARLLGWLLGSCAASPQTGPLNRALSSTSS
Experiment: flow cytometry (MFI), CHO CRTH2R-positive cells against parental CHO cells, 3-fold titration from 100 nM; grey = CRTH2R cells, black = parental cells (no legend on the panel)
property_measured: EC50 (nM)
Hi! Could you send only the number? It should be in nM, unit omitted.

See these solved cases before continuing.
INSERT INTO measurements (binder, value_reported) VALUES
  ('CRTH2-8 (antibody, V domains shown, CRTH2R IgG) VH: QVQLVQSGAEVKKPGSSVKVSCKASGGTFTDYAISWVRQAPGQGLEWMGGIIPFFGSPNYAQKFQGRVTITADESTSTAYMELSSLRSEDTAVYYCARDMYYDFAAGLEGTITEVFDEEGHQGGTEVVPADDAFDIWGQGTLVTVSS VL: QSVLTQPPSVSAAPGQKVTISCSGSSSNIGKNYVSWYQQLPGTAPKLLIYDNNQRPSGIPDRFSGSKSGTSATLGITGLQTGDEADYYCGTWDTSLTSVVFGGGTKLTVL', 135),
  ('CRTH2-74 (antibody, CRTH2R IgG) VH: QVQLVESGGGVVQPGRSLRLSCAASGFSFSEYGIHWVRQAPGKGLEWVAVISYEGSNEYYADSVKGRFTISRDNSKNTLYLQMNSLRAEDTAVYYCARANQHFGPVAGGATPSEEPGSQLTRAELGWDAPPGQESLADELLQLGTEHGYHYYGMDVWGQGTLVTVSS VL: QSVLTQPPSVSAAPGQKVTISCSGSTSNIGKNYVSWYQQLPGTAPKLLIYDDDERPSGIPDRFSGSMSGTSATLGITGLQTGDEADYYCEAWDADLSGAVFGGGTKLTVL', 8.61),
  ('CRTH2 39 (antibody, V domains shown) VH: QVQLVQSGAEVKKPGSSVKVSCKASVDTFSRYSISWVRQAPGQGLEWMGGIIPVFDTTNYAQKFQGRVTITADESTSTAYMELSSLRSEDTAVYYCARDMYYDFGVILGGTAVGTNNGSANEVVPADDAFDIWGQGTLVTVSS VL: QSVLTQPPSVSAAPGQKVTISCSGSSSNIGDNDVSWYQQLPGTAPKLLIYDDDKRPSGIPDRFSGSKSGTSATLGITGLQTGDEADYYCASWDTSLSGGYVFGGGTKLTVL', 19),
  ('CRTH2-15 (antibody, V domains shown, CRTH2R IgG) VH: QVQLVQSGAEVKKPGSSVKVSCKASGGTFSTYAIDWVRQAPGQGLEWMGGIIPLFGSPNYAQKFQGRVTITADESTSTAYMELSSLRSEDTAVYYCARANQHFFLYEGTSSSWLHVGHARYGYHYYGMDVWGQGTLVTVSS VL: QSVLTQPPSVSAAPGQKVTISCSGSGSNIGSNYVSWYQQLPGTAPKLLIYDNIRRPSGIPDRFSGSKSGTSATLGITGLQTGDEADYYCAAWDTRLSAGVFGGGTKLTVL', 73.8),
  ('CRTH2 66 (antibody) heavy chain (variable domain given): QVQLVESGGGVVQPGRSLRLSCAASGFDFSGYGMHWVRQAPGKGLEWVAVISYEGSNKFYADSVKGRFTISRDNSKNTLYLQMNSLRAEDTAVYYCARDLRELECEEWTIEVHGQEFAVHQDRGGVFSRGPCVDPRGVAGSFDVWGQGTLVTVSS light chain (variable domain given): EIVMTQSPATLSVSPGERATLSCRASQGVGSNLAWYQQKPGQAPRLLIYRTSIRATGIPARFSGSGSGTEFTLTISSLQSEDFAVYYCQQYYSWPPLTFGGGTKVEIK', 3.95);

### Prompt Answer with reported EC50 of CRTH2-50 (antibody, V domains shown, CRTH2R IgG) VH: QVQLVQSGAEVKKPGSSVKVSCKASGGTFSSYALSWVRKAPGQGLEWMGGTIPIFGTVNYAQKFQGRVTITADESTSTAYMELSSLRSEDTAVYYCARANQHFTRVIGQPSPAVPSRGYIYHGYHYYGMDVWGQGTLVTVSS VL: QSALTQPASVSGSPGQSITISCTGTSSDIGGYNFVSWYQQHPGKAPKLMIYDVSNRPQGVSNRFSGSKSGNTASLTISGLQAEDEADYYCSSYTSSNTYVVFGGGTKLTVL
### Response 19.6
